# experimentalSystem: T1, IFN-αF (human, UniProt P01568 24-189)
# T1 construct: also called IFN-α21; alpha F
# T1 chain: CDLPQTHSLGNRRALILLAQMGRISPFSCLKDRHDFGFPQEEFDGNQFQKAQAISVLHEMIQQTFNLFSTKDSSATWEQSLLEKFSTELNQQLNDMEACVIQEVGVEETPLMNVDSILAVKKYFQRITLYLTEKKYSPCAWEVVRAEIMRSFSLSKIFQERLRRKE
# testDescription: ProteOn, one antigen concentration
# key: entry, value: Kd
quantityName: Kd (nM)

{"binder": "IFWM3313 (antibody, V domains shown, VH IFWH591, VL IFWL1013; converted mAb; also called IFWB3048) VH: EVQLVQSGAEVKKPGESLKISCKGSGYSFTSYWIGWVRQMPGKGLEWMGIIDPSDSDTRYSPSFQGQVTISADKSISTAYLQWSSLKASDTAMYYCARHPGLNWAPDFDYWGQGTLVTVSS VL: DIQMTQSPSSLSASVGDRVTITCRASQSINNFLNWYQQKPGKAPKLLIYFASSLQSGVPSRFSGSGSGTDFTLTISSLQPEDFATYYCQQSFNLPITFGQGTKVEIK", "quantityName": "Kd", "quantitativeReadout": 0.084}
{"binder": "IFWM3334 (antibody, V domains shown, VH IFWH591, VL IFWL1082; converted mAb; also called IFWB3069) VH: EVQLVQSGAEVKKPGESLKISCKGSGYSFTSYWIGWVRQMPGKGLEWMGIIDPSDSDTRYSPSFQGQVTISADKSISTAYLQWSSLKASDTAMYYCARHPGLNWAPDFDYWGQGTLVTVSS VL: DIQMTQSPSSLSASVGDRVTITCRASQSIRNNSLNWYQQKPGKAPKLLIYAASSLQSGVPSRFSGSGSGTDFTLTISSLQPEDFATYYCQQDYNWPLTFGQGTKVEIK", "quantityName": "Kd", "quantitativeReadout": 5.21}
